Target: hNET (Homo sapiens, UniProt P23975)
Sequence (P23975 whole entry): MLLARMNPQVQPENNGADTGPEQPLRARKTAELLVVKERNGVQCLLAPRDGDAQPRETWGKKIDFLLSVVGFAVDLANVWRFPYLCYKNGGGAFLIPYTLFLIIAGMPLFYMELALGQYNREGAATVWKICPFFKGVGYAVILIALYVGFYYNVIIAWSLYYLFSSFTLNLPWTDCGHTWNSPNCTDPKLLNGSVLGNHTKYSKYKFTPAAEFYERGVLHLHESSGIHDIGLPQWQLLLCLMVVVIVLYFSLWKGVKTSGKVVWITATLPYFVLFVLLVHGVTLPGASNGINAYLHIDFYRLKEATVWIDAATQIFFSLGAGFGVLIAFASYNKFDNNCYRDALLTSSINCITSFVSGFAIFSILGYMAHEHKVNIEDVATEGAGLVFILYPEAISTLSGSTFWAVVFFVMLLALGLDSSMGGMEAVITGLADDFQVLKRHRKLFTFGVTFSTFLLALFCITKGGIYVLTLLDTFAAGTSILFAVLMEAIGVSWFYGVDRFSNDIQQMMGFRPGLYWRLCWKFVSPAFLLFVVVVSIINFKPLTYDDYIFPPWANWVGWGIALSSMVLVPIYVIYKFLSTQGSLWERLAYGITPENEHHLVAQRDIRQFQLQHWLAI
Experiment: cell-based
Conditions: read-out: Inhibition of [3H]neurotransmitter uptake IC50 ± sem, hNET [3H]NE; HEK-hNET cells
Listed next: entries and their corresponding pIC50.
Please keep in mind that pIC50 is minus log10 of the molar concentration; only the number is needed.

Solved cases below.
molecule | pIC50
CCCC(NCC)C(=O)c1ccccc1 (centres unmarked) | 7.00
CCCC(C(=O)c1ccc2c(c1)CCCC2)N1CCCC1 (centres unmarked) | 5.67
CN[C@@H](C)Cc1ccccc1 [METH, methamphetamine, reference compound] | 7.59
CC(N)Cc1ccc2ccoc2c1 (centres unmarked) | 7.70

Which pIC50 is listed for CCNC(C)Cc1ccc2ccoc2c1 (centres unmarked) ?
7.38
